Target or system: RORγ LBD-GST tagged (Homo sapiens, UniProt P51449)
Construct: RORγ LBD-GST tagged (Cat No. RORC-114H, Creative Biomart); purchased Creative Biomart RORC-114H
Sequence (P51449 269-508 limits assumed): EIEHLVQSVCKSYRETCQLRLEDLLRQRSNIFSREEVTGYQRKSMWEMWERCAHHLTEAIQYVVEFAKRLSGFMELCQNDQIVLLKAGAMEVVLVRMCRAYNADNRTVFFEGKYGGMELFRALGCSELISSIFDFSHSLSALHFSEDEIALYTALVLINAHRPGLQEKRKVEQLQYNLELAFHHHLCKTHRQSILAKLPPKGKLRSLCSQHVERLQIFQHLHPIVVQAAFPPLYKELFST
Assay method text: LanthaScreen TR-FRET RORγ coactivator assay
Assay type: biochemical
Assay context: Fluorescein-D22 coactivator peptide, 1 hour room temperature
Measured endpoint: IC50 (µM)

Recorded IC50, per entry:
compound="O=S(=O)(CCF)c1ccc(C(CO)c2nc3c(Cl)c(-c4ccccc4OC(F)(F)F)c(Cl)cc3[nH]2)cc1 (stereo not shown) [Example 62]" target_or_system="RORγ LBD-GST tagged (Homo sapiens, UniProt P51449)" unit_abbrev=µM reading=0.154
compound="CCS(=O)(=O)c1ccc(Cc2nc3c(Cl)c(-c4ccccc4OCOC)c(Cl)cc3[nH]2)cc1 [Example 13]" target_or_system="RORγ LBD-GST tagged (Homo sapiens, UniProt P51449)" unit_abbrev=µM reading=0.675
compound="CS(=O)(=O)c1ccc(C(O)c2nc3c(Cl)c(-c4ccccc4OC(F)(F)F)c(Cl)cc3[nH]2)c(Cl)c1 (stereo not shown) [Example 103]" target_or_system="RORγ LBD-GST tagged (Homo sapiens, UniProt P51449)" unit_abbrev=µM reading=0.158
compound="O=S(=O)(CC1CC1)c1ccc(Cc2nc3c(Cl)c(-c4ccccc4OC(F)(F)F)c(Cl)cc3[nH]2)c(Cl)c1 [Example 90]" target_or_system="RORγ LBD-GST tagged (Homo sapiens, UniProt P51449)" unit_abbrev=µM reading=0.004

[A] O=S(=O)(CCF)c1ccc(C(CO)c2nc3c(Cl)c(-c4ccccc4C(F)(F)F)c(Cl)cc3[nH]2)cc1 (stereo not shown) [Example 64]
[B] CCS(=O)(=O)c1ccc(C(O)c2nc3c(Cl)c(-c4ccccc4OC(F)F)c(Cl)cc3[nH]2)cc1 (stereo not shown) [Example 30]
[in] I'd appreciate it if you could identify which of A and B has the greater IC50. Could you answer with the label of the item you picked?
[out] A

---

Target or system: RORγ LBD-GST tagged (Homo sapiens)
Construct: RORγ LBD-GST tagged (Cat No. RORC-114H, Creative Biomart); purchased Creative Biomart RORC-114H
Assay method text: LanthaScreen TR-FRET RORγ coactivator assay
Assay type: biochemical
Assay context: Fluorescein-D22 coactivator peptide, 1 hour room temperature
Measured endpoint: IC50 (µM)

compound="O=S(=O)(CC1CC1)c1ccc(C(CCO)c2nc3cc(Cl)c(N4CCC(F)(F)CC4)c(Cl)c3[nH]2)cc1 (single isomer, unassigned)" reading=0.003
compound="CCS(=O)(=O)c1ccc(C(CC(N)=O)c2nc3c(Cl)c(N4CCC(F)(F)CC4)c(Cl)cc3[nH]2)cc1 (single isomer, unassigned) [the longer retention time of 146 and 147]" reading=0.004
compound="O=S(=O)(CC1CC1)c1ccc(C(O)c2nc3c(Cl)c(-c4ccccc4C(F)(F)F)c(Cl)cc3[nH]2)cc1 (stereo not drawn)" reading=0.004

---

Tested on: IL-17 production, human PBMC cells
Assay method text: IL-17 production assay using human PBMC
Assay type: cell-based
Assay context: Homo sapiens, PBMC, 72 h, human PBMC stimulated by cytostim for 3 days, IL-17 ELISA of supernatant
The following compounds are shown together with reported IC50 values.
Enter your answer as a number in µM; do not include the unit.

Recorded IC50, per entry:
compound="O=S(=O)(CC1CC1)c1ccc(C(CO)c2nc3c(Cl)c(-c4ccccc4OC(F)F)c(Cl)cc3[nH]2)cc1 (centres unmarked)" reading=0.001
compound="O=S(=O)(CC1CC1)c1ccc(C(CO)c2nc3c(Cl)c(-c4ccccc4OC(F)F)c(Cl)cc3[nH]2)c(F)c1 (centres unmarked)" reading=0.0024
compound="O=S(=O)(CC1CC1)c1ccc(C(O)c2nc3c(Cl)c(-c4ccccc4OC(F)F)c(Cl)cc3[nH]2)c(F)c1 (centres unmarked)" reading=0.0013
compound="CCOc1ccccc1-c1c(Cl)cc2nc(C(CO)c3ccc(S(=O)(=O)CC4CC4)cc3)[nH]c2c1Cl (centres unmarked)" reading=0.004

[in] Consider the compound `CCS(=O)(=O)c1ccc(/C(=N\O)c2nc3c(Cl)c(-c4ccccc4OC(F)F)c(Cl)cc3[nH]2)cc1` and give its measured IC50.
[out] 0.873

[in] Consider the compound `CCS(=O)(=O)c1ccc(Cc2nc3c(Cl)c(N4CCC(F)(F)CC4)c(Cl)cc3[nH]2)cc1` and give its measured IC50.
[out] 0.047

[in] Consider the compound CCS(=O)(=O)c1ccc(C(CCO)c2nc3c(Cl)c(N4CCC(F)(F)CC4)c(Cl)cc3[nH]2)cc1 (centres unmarked) and give its measured IC50.
[out] 0.01

[in] Consider the compound CC(C)Oc1ccccc1-c1cc2nc(C(CCO)c3ccc(S(=O)(=O)CC4CC4)cc3)[nH]c2cc1Cl (centres unmarked) and give its measured IC50.
[out] 0.023

[in] Consider the compound O=S(=O)(CC1CC1)c1ccc(C(CCO)c2nc3cc(Cl)c(-c4ccccc4OC(F)F)cc3[nH]2)cc1 (centres unmarked) and give its measured IC50.
[out] 0.028

[in] Consider the compound COc1ccccc1-c1c(Cl)cc2nc(C(CO)c3ccc(S(=O)(=O)CC4CC4)cc3)[nH]c2c1Cl (centres unmarked) and give its measured IC50.
[out] 0.014

[in] Consider the compound CC(=O)NCCC(c1ccc(S(=O)(=O)CC2CC2)cc1)c1nc2cc(-c3ccccc3OC(F)F)c(Cl)cc2[nH]1 (single isomer, unassigned) [166 or 167 made from Int-164A] and give its measured IC50.
[out] 0.066

[in] Consider the compound O=S(=O)(CC1CC1)c1ccc(C(CCN2CCOCC2)c2nc3cc(Cl)c(N4CCC(F)(F)CC4)c(Cl)c3[nH]2)cc1 (centres unmarked) and give its measured IC50.
[out] 0.43

[in] Consider the compound CCS(=O)(=O)c1ccc(C(O)c2nc3c(Cl)c(-c4ccccc4C#N)c(Cl)cc3[nH]2)cc1 (centres unmarked) and give its measured IC50.
[out] 0.075

[in] Consider the compound CC(C)Oc1ccccc1-c1cc2nc(C(CO)c3ccc(S(=O)(=O)CC4CC4)cc3)[nH]c2cc1Cl (centres unmarked) and give its measured IC50.
[out] 0.032

---

Target or system: RORγ LBD-GST tagged (Homo sapiens, UniProt P51449)
Construct: RORγ LBD-GST tagged (Cat No. RORC-114H, Creative Biomart); purchased Creative Biomart RORC-114H
Assay method text: LanthaScreen TR-FRET RORγ coactivator assay
Type: biochemical
Assay context: Fluorescein-D22 coactivator peptide, 1 hour room temperature
Measured endpoint: IC50 (µM)

[P] CCS(=O)(=O)c1ccc(/C(=N\O)c2nc3c(Cl)c(-c4ccccc4OC(F)F)c(Cl)cc3[nH]2)cc1 [Example 38]
[Q] O=S(=O)(CC1CC1)c1ccc(C(O)c2nc3c(Cl)c(-c4ccccc4OC(F)(F)F)c(Cl)cc3[nH]2)c(F)c1 (stereo not shown) [Example 82]
[R] CCS(=O)(=O)c1ccc(C(O)c2nc3c(Cl)c(-c4ccccc4OC(F)(F)F)c(Cl)cc3[nH]2)cc1 (stereo not shown) [Example 5]
[in] In this exercise, place the 3 compounds in ascending sequence of their recorded IC50. Write the labels out in the order the request specifies.
[out] Q, P, R

[1] COCCS(=O)(=O)c1ccc(C(O)c2nc3c(Cl)c(-c4ccccc4OC(F)(F)F)c(Cl)cc3[nH]2)cc1 (stereo not shown) [Example 55]
[2] CCS(=O)(=O)c1ccc(C(CO)c2nc3cc(Cl)c(N4CCC(F)(F)CC4)c(Cl)c3[nH]2)cc1 (stereo not shown) [Example 126]
[in] Could you tell me which of 1 and 2 has the lower IC50 reading? Could you answer with the label of the item you picked?
[out] 2
(2: 0.135 µM, 1: 0.194 µM)

[A] CC(C)Oc1ccccc1-c1cc2nc(C(CO)c3ccc(S(=O)(=O)CC4CC4)cc3)[nH]c2cc1Cl (stereo not shown) [Example 124]
[B] CCS(=O)(=O)c1ccc(C(CO)c2nc3c(Cl)c(-c4ccccc4OCC(F)(F)F)c(Cl)cc3[nH]2)cc1 (stereo not shown) [Example 32]
[in] I'd appreciate it if you could identify which of A and B has the greater IC50. Could you answer with the label of the item you picked?
[out] A
(A: 0.205 µM, B: 0.052 µM)

---

Test system: IL-17 production, human PBMC cells
Assay method text: IL-17 production assay using human PBMC
Assay type: cell-based
Assay context: human PBMC stimulated by cytostim for 3 days, IL-17 ELISA of supernatant
Measured endpoint: IC50 (µM)
Enter your answer as a number in µM; do not include the unit.

Recorded IC50, per entry:
molecule="O=S(=O)(CC1CC1)c1ccc(C(CCN2CCOCC2)c2nc3cc(-c4ccccc4OC(F)F)c(Cl)cc3[nH]2)cc1 (single isomer, unassigned) [164 or 165 made from Int-164B]" measured_endpoint=IC50 unit_abbrev=µM reading=0.35
molecule="O=S(=O)(CC1CC1)c1ccc(C(CCO)c2nc3cc(Cl)c(N4CCC(F)(F)CC4)c(Cl)c3[nH]2)cc1 (single isomer, unassigned)" measured_endpoint=IC50 unit_abbrev=µM reading=0.004
molecule="CC(C)Oc1ccccc1-c1cc2nc(C(CCO)c3ccc(S(=O)(=O)CC4CC4)cc3)[nH]c2cc1Cl (single isomer, unassigned) [the longer retention time of 150 and 151]" measured_endpoint=IC50 unit_abbrev=µM reading=0.031
molecule="NC(=O)CC(c1ccc(S(=O)(=O)CC2CC2)cc1)c1nc2cc(Cl)c(N3CCC(F)(F)CC3)c(Cl)c2[nH]1 (single isomer, unassigned) [the shorter retention time of 162 and 163]" measured_endpoint=IC50 unit_abbrev=µM reading=0.069

[in] Consider the molecule NC(=O)CC(c1ccc(S(=O)(=O)CC2CC2)cc1)c1nc2cc(-c3ccccc3OC(F)F)c(Cl)cc2[nH]1 (single isomer, unassigned) [the shorter retention time of 152 and 153] and give its measured IC50.
[out] 0.86
